So I've got a bunch of binders here, and I need their cAMP Rel EC50 (receptor-expressing HEK-293 cells, 1% HSA) values.
# measurement-target: hGLP-1R (Homo sapiens, UniProt P43220)
# Sequence (P43220 24-463): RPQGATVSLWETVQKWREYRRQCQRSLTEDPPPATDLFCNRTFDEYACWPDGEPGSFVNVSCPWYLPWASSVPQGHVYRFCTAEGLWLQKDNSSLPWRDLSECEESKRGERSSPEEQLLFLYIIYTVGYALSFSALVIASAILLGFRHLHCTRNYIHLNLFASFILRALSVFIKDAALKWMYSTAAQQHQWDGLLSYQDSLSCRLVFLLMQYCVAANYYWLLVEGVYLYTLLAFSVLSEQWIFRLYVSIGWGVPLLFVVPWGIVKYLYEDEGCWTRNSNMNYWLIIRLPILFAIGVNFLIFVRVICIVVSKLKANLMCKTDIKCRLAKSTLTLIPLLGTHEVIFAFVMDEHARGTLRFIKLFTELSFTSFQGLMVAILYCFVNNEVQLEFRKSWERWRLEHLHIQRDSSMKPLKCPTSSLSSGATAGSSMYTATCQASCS
# method-summary: cell-based or functional assay
Answers are plain numbers, in nM.

Example entries and their recorded answers appear below.
INSERT INTO measurements (binder, quantitative_result) VALUES
  ('YXQGTXTSDXXIXLDXKAQXNFIEYLIEGGPSSGEPPPEGE (synthetic construct; SITE 2: note = 2-Aminoisobutyric Acid; SITE 6: note = alpha-methyl-2-fluoro-L-phenylalanine; SITE 10: note = 3-(4-Pyridyl)-L-alanine; SITE 11: note = alpha-methyl-L-serine; SITE 13: note = alpha-methyl-leucine; SITE 16: note = L-ornithine; SITE 17: note = Lysine is chemically mo) [Example 483]', 18.2),
  ('YXQGTXTSDYXILLDKKAQXAFIEYLEEGGPSSGEPPPE (synthetic construct; SITE 2: note = 2-Aminoisobutyric Acid; SITE 6: note = alpha-methyl-2-fluoro-L-phenylalanine; SITE 11: note = alpha-methyl-L-serine; SITE 17: note = Lysine is chemically modified through conjugation of the epsilon-amino group of the Lysine side chain with (2-[2-(2-Amino-ethoxy)-e)) [Example 469]', 61.7),
  ('YXQGTXTSDXSIXLDKKAQXAFIEYLEEGGPSSGEPPPE (synthetic construct; SITE 2: note = 2-Aminoisobutyric Acid; SITE 6: note = alpha-methyl-2-fluoro-L-phenylalanine; SITE 10: note = 3-(4-Pyridyl)-L-alanine; SITE 13: note = alpha-methyl-leucine; SITE 17: note = Lysine is chemically modified through conjugation of the epsilon-amino group of the Lysine) [Example 487]', 27.7),
  ('HXQGTXTSDXXIXLDXKAQXNFIEYLLEGGPSSGEPPPE (synthetic construct; SITE 2: note = 2-Aminoisobutyric Acid; SITE 6: note = alpha-methyl-2-fluoro-L-phenylalanine; SITE 10: note = 3-(4-Pyridyl)-L-alanine; SITE 11: note = alpha-methyl-L-serine; SITE 13: note = alpha-methyl-leucine; SITE 16: note = L-ornithine; SITE 17: note = Lysine is chemically mo) [Example 478]', 28.6),
  ('YXQGTXTSDXXIXLDXKAQXNFIEXLQEGGPSSGEPPPE (synthetic construct; SITE 2: note = 2-Aminoisobutyric Acid; SITE 6: note = alpha-methyl-2-fluoro-L-phenylalanine; SITE 10: note = 3-(4-Pyridyl)-L-alanine; SITE 11: note = alpha-methyl-L-serine; SITE 13: note = alpha-methyl-leucine; SITE 16: note = L-ornithine; SITE 17: note = Lysine is chemically mo) [Example 450]', 18.4);

Would you kindly look at the next entry?
query: Value lookup for cAMP Rel EC50 (receptor-expressing HEK-293 cells, 1% HSA); key = YXQGTXTSDXXIXLDXKAQXXFIEYLIEGGPSSGAPEPSEG (synthetic construct; SITE 2: note = 2-Aminoisobutyric Acid; SITE 6: note = alpha-methyl-2-fluoro-L-phenylalanine; SITE 10: note = 3-(4-Pyridyl)-L-alanine; SITE 11: note = alpha-methyl-L-serine; SITE 13: note = alpha-methyl-leucine; SITE 16: note = L-ornithine; SITE 17: note = Lysine is chemically mo) [Example 492]
result: 9.85
